Source listed as the supplement of paper PMC11246515.

# measurement notes: total protein half-life in vivo (active degradation + dilution); higher = more stable protein
# assay context: wild type E. coli NCM3722; growth: N-lim chemostat; doubling time 6 h
Measured total protein half-life in vivo values are reported for all entries that follow.
Give the value, in units of h, as a plain number.

Q. Which measured total protein half-life in vivo value corresponds to MNKHTEHDTREHLLATGEQLCLQRGFTGMGLSELLKTAEVPKGSFYHYFRSKEAFGVAMLERHYAAYHQRLTELLQSGEGNYRDRILAYYQQTLNQFCQHGTISGCLTVKLSAEVCDLSEDMRSAMDKGARGVIALLSQALENGRENHCLTFCGEPLQQAQVLYALWLGANLQAKISRSFEPLENALAHVKNIIATPAV ?
A. 7.06
